The reported numbers originate from patent US20110218188A1.

Procedure text: Measurement of logP values by HPLC on reversed phase columns (EEC directive 79/831 Annex V.A8)
Format: physicochemical
Condition summary: pH 2.7
Experimental readout: logP

What the record says about CC1CN(C(=O)c2cc(-c3ncnc(Nc4cccc(Cl)c4)n3)ccn2)CC(C)O1 (centres unmarked) : logP is 2.92

compound COCC(C1CC1)N(C)C(=O)c1cc(-c2ncnc(Nc3cccc(Cl)c3)n2)ccn1 (centres unmarked) , logP observed: 3.09

Entry C=CCNC(=O)c1cc(-c2ncnc(Nc3cccc(F)c3)n2)ccn1 — recorded logP = 3.08

Briefly, logP measured for CCOC(=O)CNN=C(C)c1cc(-c2ncnc(Nc3cccc(Cl)c3)n2)ccn1 : 3.02

O=C(NCC1CCCO1)c1cc(-c2ncnc(Nc3cccc(Cl)c3)n2)ccn1 (centres unmarked) has a reported logP of 3.09

###

Procedure text: Measurement of logP values by HPLC on reversed phase columns (EEC directive 79/831 Annex V.A8)
Type: physicochemical
Condition summary: pH 2.7
Experimental readout: logP

# logP (compound: CN(CCC#N)C(=O)c1cc(-c2ncnc(Nc3cccc(OC(F)(F)F)c3)n2)ccn1 ) is 2.8

Looking up CCN(CC)C(=S)c1cc(-c2ncnc(Nc3ccsc3)n2)ccn1 , I found its logP recorded as 3.02

// logP lookup, compound = COC[C@H]1CCCN1C(=O)c1cc(-c2ncnc(Nc3cccc(Cl)c3)n2)ccn1 , result: 3.08

Lookup result for CN(CC1CC1)C(=O)c1cc(-c2ncnc(Nc3ccc(F)c(F)c3)n2)ccn1 ; measured logP: 2.98

So, CCN(C)C(=S)c1cc(-c2ncnc(Nc3cccc(OC(F)(F)F)c3)n2)ccn1 ? Its logP was 3.57

###

Procedure text: Measurement of logP values by HPLC on reversed phase columns (EEC directive 79/831 Annex V.A8)
Type: physicochemical
Condition summary: pH 2.7
Experimental readout: logP

Summary for this compound, CN(C)C(=O)c1cc(-c2ncnc(Nc3ccc(F)c(C(F)F)c3)n2)ccn1 : logP is 2.25

// sample O=C(c1cc(-c2ncnc(Nc3cccc(Cl)c3)n2)ccn1)N1CCOCC1 , its logP was 2.39

Entry CN1CCN(C(=O)c2cc(-c3ncnc(Nc4cccc(Cl)c4)n3)ccn2)CC1 ; logP = 1.5

The compound listed as CC(=O)Nc1cccc(Nc2ncnc(-c3ccnc(C(=O)N(C)CCC#N)c3)n2)c1 has a reported logP of 2.08

Sure, the documented logP for CN(C)C(=O)c1cc(-c2ncnc(Nc3cccc(C#N)c3)n2)ccn1 is 1.88

[P] CCCN(C(=O)c1cc(-c2ncnc(Nc3cccc(Cl)c3)n2)ccn1)C(C)CC (stereo not drawn)
[Q] CC(C)N(C)C(=O)c1cc(-c2ncnc(Nc3ccc(F)c(C(F)F)c3)n2)ccn1
[R] COCc1cccc(Nc2ncnc(-c3ccnc(C(=O)N(C)C)c3)n2)c1
Q. Arrange these 3 compounds in increasing order of logP. Return the labels ranked in the requested order, please.
A. R, Q, P
(R: 1.91, Q: 2.78, P: 4.13)

###

Procedure text: Measurement of logP values by HPLC on reversed phase columns (EEC directive 79/831 Annex V.A8)
Assay type: physicochemical
Condition summary: pH 2.7
Experimental readout: logP

Entry CCN(CC)C(=O)c1cc(-c2ncnc(Nc3ccc(F)c(Cl)c3)n2)ccn1 [Example B202] — recorded logP = 3.13

[A] CN(CCC#N)C(=O)c1cc(-c2ncnc(Nc3cccc(OC(F)F)c3)n2)ccn1 [Example B297]
[B] CCC(=NOCc1ccc(Cl)cc1)c1cc(-c2ncnc(Nc3cccc(Cl)c3)n2)ccn1 (mixture of isomers) [B70]
Q. Larger number for logP: A , or B ? Which one? Tell me its label.
A. B

###

Procedure text: Measurement of logP values by HPLC on reversed phase columns (EEC directive 79/831 Annex V.A8)
Format: physicochemical
Condition summary: pH 2.7
Experimental readout: logP

What the record says about CCCN(C)C(=O)c1cc(-c2ncnc(Nc3cccc(COC)c3)n2)ccn1 : logP is 2.48

The compound identified as CCNC(=O)c1cc(-c2ncnc(Nc3cccc(Cl)c3)n2)ccn1 registered its logP at 3.17

compound CCCN(C)C(=O)c1cc(-c2ncnc(Nc3ccc(F)c(F)c3)n2)ccn1 , logP observed: 2.86

Documented logP of CC(C)N(C)C(=S)c1cc(-c2ncnc(Nc3ccc(F)c(C(F)F)c3)n2)ccn1 : 3.29

// logP value for CC(C)N(C)C(=O)c1cc(-c2ncnc(Nc3ccccc3)n2)ccn1 : 2.45

Entry COC(=O)c1cc(-c2ncnc(Nc3ccc(Br)c(OC)c3)n2)ccn1 ; logP = 2.90

logP reading for CCOc1cccc(Nc2ncnc(-c3ccnc(C(=S)N(C)CC)c3)n2)c1 : 3.15

Lab note: measured logP of CCN(CC1CCCO1)C(=O)c1cc(-c2ncnc(Nc3cccc(Cl)c3)n2)ccn1 (stereo not shown) was 3.09

// CC1CCCCN1C(=O)c1cc(-c2ncnc(Nc3cccc(Cl)c3)n2)ccn1 (stereo not shown) : logP value = 3.39

Measured logP, O=C(NC1CC1)c1cc(-c2ncnc(Nc3ccc(F)c(Cl)c3)n2)ccn1 : 3.31

Memo: CCN(C)C(=S)c1cc(-c2ncnc(Nc3ccc(F)c(Cl)c3)n2)ccn1 , reported logP: 3.33

Memo: CC(C)CN(C)C(=O)c1cc(-c2ncnc(Nc3ccc(F)cc3)n2)ccn1 , reported logP: 2.92

logP reading for CCN(C)C(=O)c1cc(-c2ncnc(Nc3ccc(F)c(C(F)F)c3)n2)ccn1 : 2.55
